STUDY SYSTEM: Replicase polyprotein 1ab (Severe acute respiratory syndrome coronavirus 2) (UniProt P0DTD1)
TEST PROTOCOL: Inhibition of recombinant SARS-CoV-2 3CLpro expressed in Escherichia coli NiCo21(DE3) assessed as residual activity at 500 uM using DABCYL-KTSAVLQSGFRKME-EDANS as substrate preincubated for 30 mins in presence of 1mM DTT followed by substrate addition and measured by FRET assay relative to control
MEASURED ENDPOINT: Activity (%)

chem_smiles=COC(=O)C(=O)Nc1ncc(Br)s1 measured_endpoint=Activity recorded_result=66.2
chem_smiles=Cc1nc(-c2ccc(C(=O)O)cc2)cs1 measured_endpoint=Activity recorded_result=81.2
chem_smiles=Nc1ccc(S(=O)(=O)Nc2nccs2)cc1 measured_endpoint=Activity recorded_result=74.2
chem_smiles=NCCc1cn(Cc2cscn2)nn1 measured_endpoint=Activity recorded_result=87.4
chem_smiles=COC(=O)CC(=O)Nc1ncc(C#N)s1 measured_endpoint=Activity recorded_result=86.3
chem_smiles=CCOC(=O)c1sc(Br)nc1C measured_endpoint=Activity recorded_result=85.8
chem_smiles=Cc1cnc(Br)s1 measured_endpoint=Activity recorded_result=79.1
chem_smiles=Nc1nc(CC(=O)O)cs1 measured_endpoint=Activity recorded_result=84.2
chem_smiles=CCOC(=O)Cc1csc(N)n1 measured_endpoint=Activity recorded_result=82.1
chem_smiles=Cc1nc(Br)sc1C(=O)O measured_endpoint=Activity recorded_result=92.9
chem_smiles=Nc1ncc(Br)s1 measured_endpoint=Activity recorded_result=79.4
chem_smiles=O=C(O)c1csc(-c2ccncc2)n1 measured_endpoint=Activity recorded_result=94.4
chem_smiles=Brc1cnc(Br)s1 measured_endpoint=Activity recorded_result=79.9
chem_smiles=CCOC(=O)Cc1csc(Br)n1 measured_endpoint=Activity recorded_result=70.8
chem_smiles=Cc1cnc(N)s1 measured_endpoint=Activity recorded_result=79.8
chem_smiles=Nc1nnc(C2CC2)s1 measured_endpoint=Activity recorded_result=79.3

====

TEST PROTOCOL: Redox activity of compound assessed as redox index at 100 uM in presence of 100 uM TCEP measured by H2DCFDA assay
Type: physicochemical
MEASURED ENDPOINT: Activity_index

molecule=CCOC(=O)Cc1csc(Br)n1 measured_endpoint=Activity_index recorded_result=0.9
molecule=O=C(O)c1csc(Br)n1 measured_endpoint=Activity_index recorded_result=1
molecule="Nc1ccc(S(=O)(=O)Nc2nccs2)cc1 [SULFATHIAZOLE]" measured_endpoint=Activity_index recorded_result=1.1
molecule=Brc1cscn1 measured_endpoint=Activity_index recorded_result=0.8
molecule=Nc1nc(-c2ccncc2)cs1 measured_endpoint=Activity_index recorded_result=1.2
molecule=O=S(=O)(Cc1ccccc1)Nc1nccs1 measured_endpoint=Activity_index recorded_result=10.2
molecule=Cc1csc(N)n1 measured_endpoint=Activity_index recorded_result=0.8
molecule=Brc1nncs1 measured_endpoint=Activity_index recorded_result=1.2
molecule=N#Cc1cnc(NC(=O)CC(=O)O)s1 measured_endpoint=Activity_index recorded_result=0.8
molecule=O=C(O)C(=O)Nc1ncc(Br)s1 measured_endpoint=Activity_index recorded_result=1.2
molecule=COC(=O)c1cnc(Br)s1 measured_endpoint=Activity_index recorded_result=1.1
molecule=CCOC(=O)c1csc(N)n1 measured_endpoint=Activity_index recorded_result=0.7
molecule=CCOC(=O)Cc1csc(N)n1 measured_endpoint=Activity_index recorded_result=1
molecule=CNc1nnc(C(F)(F)F)s1 measured_endpoint=Activity_index recorded_result=1.1
molecule=O=C(O)c1nc(Br)cs1 measured_endpoint=Activity_index recorded_result=0.9
molecule=O=C(O)c1csc(-c2ccc(F)cc2)n1 measured_endpoint=Activity_index recorded_result=0.8
